biological target: Glucocorticoid receptor (Homo sapiens); test: Transactivation activity at glucocorticoid receptor in human HepG2 cells expressing luciferase-taggged GRE gene at 1 uM by luciferase reporter gene assay relative to control; assay type: cell-based
Items are presented alongside their recorded Emax.
Write down the numeric answer in % and omit the unit.

| SMILES INPUT | SCALE UNIT | Emax |
| --- | --- | --- |
| C[C@]12CCC(=O)C=C1CC[C@H]1[C@@H]3CC[C@](O)(C(=O)CSc4nc5ccccc5s4)[C@@]3(C)C[C@H](O)[C@@]12F | % | 63 |
| C[C@]12C=CC(=O)C=C1CC[C@@H]1[C@@H]2[C@@H](O)C[C@@]2(C)[C@H]1CC[C@]2(OC(=O)c1ccco1)C(=O)CSc1nc2ccccc2s1 | % | 93 |
| C[C@@H]1C[C@H]2[C@@H]3CCC4=CC(=O)C=C[C@]4(C)[C@@]3(F)[C@@H](O)C[C@]2(C)[C@@]1(O)C(=O)CSc1nc2ccccc2s1 | % | 68 |
| Cc1ccnc(SCC(=O)[C@@]2(OC(=O)c3ccco3)CC[C@H]3[C@@H]4CCC5=CC(=O)C=C[C@]5(C)[C@H]4[C@@H](O)C[C@@]32C)n1 | % | 97 |
| C[C@@H]1C[C@H]2[C@@H]3CCC4=CC(=O)C=C[C@]4(C)[C@@]3(Cl)[C@@H](O)C[C@]2(C)[C@@]1(O)C(=O)CSc1nc2ccccc2s1 | % | 60 |
| C[C@]12C=CC(=O)C=C1CC[C@@H]1[C@@H]2[C@@H](O)C[C@@]2(C)[C@H]1CC[C@]2(OC(=O)c1ccco1)C(=O)CSc1nccc2ccccc12 | % | 73 |

Let's switch to this compound now.
[in] Request: Emax, test system Glucocorticoid receptor (Homo sapiens), entry C[C@H]1C[C@@H]2[C@H]([C@@H](O)C[C@@]3(C)[C@H]2CC[C@]3(O)C(=O)CSc2nc3ccccc3s2)[C@@]2(C)C=CC(=O)C=C12
[out] 55

====

target: UniProt P04150; experiment: Transrepression activity at glucocorticoid receptor in human H292 cells assessed as inhibition of TNF-stimulated IL-6 cytokine synthesis; assay type: cell-based
Items are presented alongside their recorded pIC50.
The read-out pIC50 is expressed as -log10 of concentration in moles per litre.

Known results for compounds:
| SMILES INPUT | RECORDED METRIC | VALUE OBSERVED |
| --- | --- | --- |
| C[C@@H]1C[C@H]2[C@@H]3CCC4=CC(=O)C=C[C@]4(C)[C@@]3(F)[C@@H](O)C[C@]2(C)[C@@]1(O)C(=O)CSc1nc2ccccc2s1 | pIC50 | 8.36 |
| C[C@@H]1C[C@H]2[C@@H]3CCC4=CC(=O)C=C[C@]4(C)[C@@]3(Cl)[C@@H](O)C[C@]2(C)[C@@]1(O)C(=O)CSc1nc2ccccc2s1 | pIC50 | 8.31 |
| C[C@]12CCC(=O)C=C1CC[C@H]1[C@@H]3CC[C@](O)(C(=O)CSc4nc5ccccc5s4)[C@@]3(C)C[C@H](O)[C@@]12F | pIC50 | 7.73 |
| C[C@]12C=CC(=O)C=C1CC[C@@H]1[C@@H]2[C@@H](O)C[C@@]2(C)[C@H]1CC[C@]2(O)C(=O)CSc1nc2ccccc2s1 | pIC50 | 7.46 |
| C[C@]12CCC(=O)C=C1CC[C@@H]1[C@@H]2[C@@H](O)C[C@@]2(C)[C@H]1CC[C@]2(OC(=O)c1ccco1)C(=O)CSc1nccc2ccccc12 | pIC50 | 7.80 |

Let's switch to this compound now.
[in] Find the recorded pIC50 belonging to Cc1nc(SCC(=O)[C@@]2(OC(=O)c3ccco3)CC[C@H]3[C@@H]4CCC5=CC(=O)CC[C@]5(C)[C@H]4[C@@H](O)C[C@@]32C)sc1C and report it.
[out] 9.05

====

Items are presented alongside their recorded pIC50.
target: Glucocorticoid receptor (Homo sapiens, UniProt P04150); assay: Inhibition of human glucocorticoid receptor
Sequence (P04150 whole entry): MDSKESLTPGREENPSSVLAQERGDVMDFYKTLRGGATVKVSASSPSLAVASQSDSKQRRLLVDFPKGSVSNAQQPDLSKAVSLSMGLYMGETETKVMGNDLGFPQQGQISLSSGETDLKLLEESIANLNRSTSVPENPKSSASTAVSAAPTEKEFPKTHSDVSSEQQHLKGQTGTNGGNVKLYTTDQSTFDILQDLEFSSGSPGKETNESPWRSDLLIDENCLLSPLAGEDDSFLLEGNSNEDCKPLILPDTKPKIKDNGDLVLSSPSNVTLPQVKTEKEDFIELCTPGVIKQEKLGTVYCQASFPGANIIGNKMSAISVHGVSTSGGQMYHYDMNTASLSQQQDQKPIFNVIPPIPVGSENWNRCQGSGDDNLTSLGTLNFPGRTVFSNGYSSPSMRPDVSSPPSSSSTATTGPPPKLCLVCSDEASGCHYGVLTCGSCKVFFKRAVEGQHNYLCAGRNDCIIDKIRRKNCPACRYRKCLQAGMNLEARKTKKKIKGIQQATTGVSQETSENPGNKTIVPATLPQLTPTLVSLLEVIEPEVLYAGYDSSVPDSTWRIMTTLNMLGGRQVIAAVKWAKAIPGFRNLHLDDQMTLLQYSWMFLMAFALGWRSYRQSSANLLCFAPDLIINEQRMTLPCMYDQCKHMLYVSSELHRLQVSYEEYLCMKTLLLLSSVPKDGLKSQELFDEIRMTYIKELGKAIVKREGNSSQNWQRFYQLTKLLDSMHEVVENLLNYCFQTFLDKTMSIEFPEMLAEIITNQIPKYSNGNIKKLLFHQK
The read-out pIC50 is expressed as -log10 of concentration in moles per litre.

Known results for molecules:
| SMILES INPUT | RECORDED METRIC | VALUE OBSERVED |
| --- | --- | --- |
| C[C@]12C=CC(=O)C=C1CC[C@@H]1[C@@H]2[C@@H](O)C[C@@]2(C)[C@H]1CC[C@]2(O)C(=O)CSc1nc2ccccc2s1 | pIC50 | 8.42 |
| C[C@]12CCC(=O)C=C1CC[C@H]1[C@@H]3CC[C@](O)(C(=O)CSc4nc5ccccc5s4)[C@@]3(C)C[C@H](O)[C@@]12F | pIC50 | 8.34 |

Let's switch to this molecule now.
[in] Find the recorded pIC50 belonging to C[C@@H]1C[C@H]2[C@@H]3CCC4=CC(=O)C=C[C@]4(C)[C@@]3(F)[C@@H](O)C[C@]2(C)[C@@]1(O)C(=O)CSc1nc2ccccc2s1 and report it.
[out] 7.74

====

Target: Glucocorticoid receptor (Rattus norvegicus) (UniProt P06536)
Sequence (whole entry): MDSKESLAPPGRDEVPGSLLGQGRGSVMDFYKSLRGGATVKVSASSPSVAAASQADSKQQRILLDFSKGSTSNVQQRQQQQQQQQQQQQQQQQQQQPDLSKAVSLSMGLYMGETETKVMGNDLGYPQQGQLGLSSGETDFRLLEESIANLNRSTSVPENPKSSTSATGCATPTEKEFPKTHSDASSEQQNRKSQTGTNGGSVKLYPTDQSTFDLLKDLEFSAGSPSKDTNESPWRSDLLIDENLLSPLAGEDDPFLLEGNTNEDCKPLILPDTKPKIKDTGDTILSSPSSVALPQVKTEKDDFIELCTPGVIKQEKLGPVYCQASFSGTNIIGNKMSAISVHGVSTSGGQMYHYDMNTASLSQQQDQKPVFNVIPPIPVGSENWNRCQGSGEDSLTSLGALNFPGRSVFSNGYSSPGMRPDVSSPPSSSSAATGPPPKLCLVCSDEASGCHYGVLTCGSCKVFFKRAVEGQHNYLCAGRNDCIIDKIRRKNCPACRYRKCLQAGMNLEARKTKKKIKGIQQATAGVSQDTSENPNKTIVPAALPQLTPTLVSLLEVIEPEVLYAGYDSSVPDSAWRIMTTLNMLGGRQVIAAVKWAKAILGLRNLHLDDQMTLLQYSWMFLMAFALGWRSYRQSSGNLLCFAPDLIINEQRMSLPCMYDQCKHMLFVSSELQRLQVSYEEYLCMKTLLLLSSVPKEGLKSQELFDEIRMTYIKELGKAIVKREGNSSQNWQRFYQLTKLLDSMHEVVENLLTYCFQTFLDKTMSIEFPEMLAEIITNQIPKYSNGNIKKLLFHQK
Experiment: Transactivation activity at glucocorticoid receptor in rat H4II-E cells assessed as induction of tyrosine amino transferase at 1 uM relative to control
Assay type: cell-based
Label scheme for Emax: category 1 (below 10%), category 2 (10% to below 30%), category 3 (30% or more)

| SMILES INPUT | LABEL VALUE |
| --- | --- |
| C[C@]12CCC(=O)C=C1CC[C@H]1[C@@H]3CC[C@](O)(C(=O)CSc4nc5ccccc5s4)[C@@]3(C)C[C@H](O)[C@@]12F | category 2 |
| C[C@@H]1C[C@H]2[C@@H]3CCC4=CC(=O)C=C[C@]4(C)[C@@]3(Cl)[C@@H](O)C[C@]2(C)[C@@]1(O)C(=O)CSc1nc2ccccc2s1 | category 2 |
| C[C@]12CCC(=O)C=C1CC[C@@H]1[C@@H]2[C@@H](O)C[C@@]2(C)[C@H]1CC[C@]2(OC(=O)c1ccco1)C(=O)CSc1nccc2ccccc12 | category 1 |
| C[C@]12CCC(=O)C=C1CC[C@@H]1[C@@H]2[C@@H](O)C[C@@]2(C)[C@H]1CC[C@]2(OC(=O)c1ccco1)C(=O)CSc1nc2ccccc2s1 | category 1 |
| C[C@H]1C[C@@H]2[C@H]([C@@H](O)C[C@@]3(C)[C@H]2CC[C@]3(O)C(=O)CSc2nc3ccccc3s2)[C@@]2(C)C=CC(=O)C=C12 | category 3 |

[in] Bin? C[C@]12C=CC(=O)C=C1CC[C@@H]1[C@@H]2[C@@H](O)C[C@@]2(C)[C@H]1CC[C@]2(O)C(=O)CSc1nc2ccccc2s1
[out] category 2

[in] What about this molecule? Cc1nc(SCC(=O)[C@@]2(OC(=O)c3ccco3)CC[C@H]3[C@@H]4CCC5=CC(=O)CC[C@]5(C)[C@H]4[C@@H](O)C[C@@]32C)sc1C
[out] category 2

[in] What about this molecule? C[C@@H]1C[C@H]2[C@@H]3C[C@H](F)C4=CC(=O)C=C[C@]4(C)[C@@]3(F)[C@@H](O)C[C@]2(C)[C@@]1(O)C(=O)CSc1nc2ccccc2s1
[out] category 3

Taken from ChEMBL document CHEMBL1914389.
